The reported measurements were obtained from the domain aggregation screens of Martell et al. (2025).

Quick list: soluble fraction (log2) per entry.
experiment: soluble fraction after stress (log2 fold change); higher = more stays soluble; pooled small domains, quantitative proteomics; conditions: stress: pH 4
Number only, please.

Example entries and their recorded answers appear below.
- sequence_code: "HMSNPPIRIGKKALHELLTTWLSLLSRDGVAYLVVQKNLGADSLTAWLRDQGFPSEKIASKKGFRIIEVH"
  soluble fraction (log2): 0.0506
- sequence_code: "HMPLQYRLTVQPTPTNARVRLVNSAFTYRPGVALPPGSYIVEVSSSGYGAKRQAVQIADGDVTVPVELEKI"
  soluble fraction (log2): 0.138
- sequence_code: "HMPDGTATATASVNVRSGASTLSPVLGVLRVGESIGVTGQANGGWVPVNYNGRAGYVYAAYLSFD"
  soluble fraction (log2): -0.0669
- sequence_code: "HMWQKGEPAITGLKRISKPGLRIYSKNDELPIVYGNRGIAVISTNKGVMTGIEAKRSGVGGEVLFYV"
  soluble fraction (log2): 0.104
- sequence_code: "HMNTWVEIFRAEDQGQIRDASLVLLAVKVAHRVDMNSSSAPWSLMVPAQDQQRAHHELTTYWQENAH"
  soluble fraction (log2): -1.35

Query block: State its soluble fraction (log2) for this sequence: HMEEEVKVPKIKGLTEAEAKAKLKSEGLESGTARSAYSDTVEEGHIISQSIQEGTKVPKGTAVSYEVSKGK
Result block: 0.22

Query block: Please report soluble fraction (log2) for the following sequence: HMEFGEVLAQLRQKRHISQAELGRAIFVSGGTISNYEKGVHFPDVEKLLLLADYFNVTTDYLLGRT
Result block: -0.169

Query block: Using known records, supply soluble fraction (log2) for HMFPELSEEAKVIVDALSKENDQQLNVLIANTGMAVGTMQAKLFELEMQGVVKPLAGSVYHLM
Result block: 0.22

Query block: Tell me measured soluble fraction (log2) for HMALPRYFFRTRENGAVLFKTPVNNHQNRLEMHQIAAINIRNETVKPLGDTVLTDEETELIADWMRERKTV please.
Result block: -0.596

Query block: Determine from records and report soluble fraction (log2) for HMAVEETFTITWLDRDGTVLEVDENVLKGTMPSFDGHIPPHDGLEFKGWDPEVVPVEGDATYTATYKA
Result block: -0.454

Query block: Provide soluble fraction (log2) value for the following sequence: HMKKTPLSELTNRAVELFIETVFMERNYSVSSQRQFISALKIFTVFYPQTKIHNLSLERLQSSFDKLLN
Result block: -0.564

Query block: Determine its reported soluble fraction (log2): HMEWTVEKQAAATLNAWMRKNSEMTSEKKVAVAAGIGPATVNRIMKAEVSTTIGVLSSLARAFGHEAYEMI
Result block: 0.114

----------
# soluble fraction (log2) annotations
experiment: soluble fraction after stress (log2 fold change); higher = more stays soluble; pooled small domains, quantitative proteomics; details: stress: pH 4
In your answer, state the number alone without any accompanying words.

- sequence_code: "HMSIQDLMNSKDLSGFKVEMLSNEDIVKYKSMLQSSGFSESQAEQLALQRGLPTSELIKLRTRISDVAVT"
  soluble fraction (log2): 0.17

Query block: Consider the sequence HMTPNATWQDDAQNLLRDLIQHQPVLVQISAAKRLRDQAEQISRITGGETVTREHVEAAGHALGMGVT . State its measured soluble fraction (log2).
Result block: -0.0443

Query block: Please list soluble fraction (log2) recorded for the sequence HMDINEIILKVASEKKTFKTSDVLEALDNNYTKQHVSALISAMVKKGILVKAGSTAKSTYALPENASLL
Result block: 0.0858

----------
experiment: soluble fraction after stress (log2 fold change); higher = more stays soluble; pooled small domains, quantitative proteomics; conditions: stress: pH 4
measured_property: soluble fraction (log2)
Provide a numeric answer; units are not to be included.

- sequence_code: "HMGFVTVTEVDTTADLKLARVYVSVLGPEEQWAKSFTALESARGFVWNWLRKHLDLRVTPQLAF"
  soluble fraction (log2): -1.74
- sequence_code: "HMYEENFSKIKNDISTIFKRHKISFTNNFISHLSSVFNTDSLTNKMELEKLDSFLINNKKVTENELLKFII"
  soluble fraction (log2): 0.0436
- sequence_code: "HMGGLAEGTKITLQNTVNVRASMGEDAEKIGTAYAGEKVTVIMSYAEGWTKVTWNDKTGYIKTSLL"
  soluble fraction (log2): -1.04
- sequence_code: "HMRKTYHVDAYQDDKWWVLQVQEMPNAISQVKSLDQADEWIREAINIVSNEPEDSFDVVIIPV"
  soluble fraction (log2): -1.54
- sequence_code: "HMDGVNRDKIEYRLDDLYYLKGSDAPYTGKVFEEWSGQQRVETNYIDGKLDGLSESWHENGQKASEVNY"
  soluble fraction (log2): -0.831

Query block: State its soluble fraction (log2): HMDALPLIQLEKEIKDFISQGQKINAIKHYRNVMDRDFGTTISLKLAKYTVDALAQNIKVDLTKGYDQ
Result block: -0.852

Query block: Please list soluble fraction (log2) recorded for the sequence HMNADKEALIAAAYRNSLIENFGTENVERYEERFNKWADKHDRQGMPMYPTIEKWMNEDNIA
Result block: -0.209

Query block: Provide measured soluble fraction (log2) value, entry: HMGYSDEIGEFIKKLRTENHLTQKEFADKYGVTYQAVSKWENGKNLPDMSLIKQMSEDFNIGIDELLDGEK
Result block: -0.454

Query block: Please give measured soluble fraction (log2) of the following entry: HMKINKQHLAFQIFGIRAKLGLSMEQFGELLGANKSSVSGWERGTVVPSSQRLKKIAELGKISLAELLTP
Result block: 0.276

Query block: Give reported soluble fraction (log2) value for HMLPAGSDAILRYLSSGAVKGIGVATAARIVEKFGDETLRILEEEPGRLAEIKGITAAKAKAIGEAFAGQ
Result block: -0.143

----------
experiment: soluble fraction after stress (log2 fold change); higher = more stays soluble; pooled small domains, quantitative proteomics; conditions: stress: pH 4
Hi all, reminder that labels come from soluble fraction (log2), split as low (below -0.3), mid (-0.3 to below -0.02), high (-0.02 or more)

Look over these answered cases.
- sequence_code: "HMGALTGQERRAEIMNILRQSTMPLSGAALGKQLGVSRQVVVQDIALLRQSGEEIYATNRGYVTG"
  assigned_class: "high"
- sequence_code: "HMDHFLRRFQVEGLNLEKLLRLAAEREMDLLQVRRSGRRMTGLVAEKRLPELEELAAQGGWALRLGEY"
  assigned_class: "high"
- sequence_code: "HMRIDSFEDARRRFEYDYLTRLLKLTQGSVTQAAKLAKRNRTEFYKLLQRHGIEAAHFKPTS"
  assigned_class: "high"
- sequence_code: "HMRKYEAVPASVVPAQIQEYVAKSNFPNQYIRKIERNKYTWEIELSNGLEIKFDRQFNVIGFD"
  assigned_class: "high"
- sequence_code: "HMRGPDLSKDFHEYISSQWMFFGRNAYQIAEQINKDTQLMSKYGKTTPSGVHYHIKQIQQEMEN"
  assigned_class: "low"

Query block: Lab note: sort HMDNEIIEEEKITTLMITHNMRDAIKYGNRLIMLNEGRVIFDISGEEKKNLTVQELLEKFEK into the matching soluble fraction (log2) band.
Result block: high

Query block: Could you place HMPHSTTDFSVSPDERQIVYSTNLQGRYDLWALDHNQGYPYPLTKKGQMSFFIKHLPGSQMILTGFD in its proper category? Many thanks.
Result block: high

Query block: Lab log: HMGWQPDPLTTRERLVAELATQASNAQIAEQLHLSVRTVEGHLAHVYTKLGITTRRELPAALAGAR — assign soluble fraction (log2) category
Result block: high

Query block: Hey, which category is HMPTGRVVIPLNRLTASDVARILDEAYGRDHNFEVVKPSRLAKGIIVIGPKSEIDGIKELLAH in, do you know?
Result block: mid

Query block: Tag the class for HMPQIDLYPFEVRIEQDNNAAEYAVRFLDVPNIIGSGASIDEAIVEARGNLKEYLDYLIDTNRDIPLPS
Result block: low

Query block: Field: class (soluble fraction (log2)) — entry: HMAEVGDFTLAELIKVLFNEAGVLKAPVELRNDNTGGLQYRVGAYTDSETGWETIASIADLKGA
Result block: low

Query block: Consider HMKKYFPPKSRFNPNKYLLKDWMALGLSEKQSQSILNFIQRGIYSNSALEKIYVMPEEVFTLIKDSTYYEE . To which soluble fraction (log2) class does it belong?
Result block: low

Query block: Could you tell me which band HMPSLGADIRALRKSRKMTLVALADALGRSVGWLSQVERDKSHATIADLGRMAEVLDVSISSFL belongs to?
Result block: mid

Query block: Band assignment needed for HMKQENRLKILRKEKGLTQTKLANEIGVSKRTIIAWENDERQIKPDKAQQLADYFGVKEGYLLGYTNN please.
Result block: mid
